Measured IC50 on UniProt:O42275 follows.
Please state the number and follow it with the unit.

CC(C)N1CCN(CCCCCCOc2ccc3c(c2)NC(=O)CC3)CC1: 0.76 µM
O=C1CCc2ccc(OCCCN3CCC(N4CCCC4)CC3)cc2N1: 5.8 µM
CCN(CC)CCCOc1ccc2c(c1)NC(=O)CC2: 11.2 µM

Reported IC50 for O=C1CCc2ccc(OCCCN3CCN(Cc4ccccc4)CC3)cc2N1 : what is it?
1.3 µM

----------
The compounds below have reported pIC50 for Acetylcholinesterase (Electrophorus electricus, UniProt O42275).
Numbers only, as −log10 of the molar value.

Worked set:
O=C1CCc2ccc(OCCCCN3CCN(c4ccccn4)CC3)cc2N1: 4.86
C#CCN(CCCCOc1ccc2c(c1)NC(=O)CC2)Cc1ccccc1: 4.67
O=C1CCc2ccc(OCCCCCCN3CCCCC3)cc2N1: 4.75
CC(C)N1CCN(CCCCCOc2ccc3c(c2)NC(=O)CC3)CC1: 6.05
C#CCN(CCCOc1ccc2c(c1)NC(=O)CC2)Cc1ccccc1: 4.63

Please report pIC50 for every entry that follows.
1. O=C1CCc2ccc(OCCCN3CCc4ccccc4C3)cc2N1
2. O=C1CCc2ccc(OCCCCCCN3CCCC3)cc2N1
3. O=C1CCc2ccc(OCCCCN3CCN(Cc4ccccc4)CC3)cc2N1
4. O=C1CCc2ccc(OCCCN3CCN(c4ccccn4)CC3)cc2N1
5. CC(C)N1CCN(CCCOc2ccc3c(c2)NC(=O)CC3)CC1

4.88
5.59
5.22
5.02
5.21

For CC(C)N1CCN(CCCCOc2ccc3c(c2)NC(=O)CC3)CC1 , what is its reported pIC50?
6.00

----------
# Target Under Test: Amine oxidase [flavin-containing] A (Homo sapiens)
# Sequence (P21397 whole entry): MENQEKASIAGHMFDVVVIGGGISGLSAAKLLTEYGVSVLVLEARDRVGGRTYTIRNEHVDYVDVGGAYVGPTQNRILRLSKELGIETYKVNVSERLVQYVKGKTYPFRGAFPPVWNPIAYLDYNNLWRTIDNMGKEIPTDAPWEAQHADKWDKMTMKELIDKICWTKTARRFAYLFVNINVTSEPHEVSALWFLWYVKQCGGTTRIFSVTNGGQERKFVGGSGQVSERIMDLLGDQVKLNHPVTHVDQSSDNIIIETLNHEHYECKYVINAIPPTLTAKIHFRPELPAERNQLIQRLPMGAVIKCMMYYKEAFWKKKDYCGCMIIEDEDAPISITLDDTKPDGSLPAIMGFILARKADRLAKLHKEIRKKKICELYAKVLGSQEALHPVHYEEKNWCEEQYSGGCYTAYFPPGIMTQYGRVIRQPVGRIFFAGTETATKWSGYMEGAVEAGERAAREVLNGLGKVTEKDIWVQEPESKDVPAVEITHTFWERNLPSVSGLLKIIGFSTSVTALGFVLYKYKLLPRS
# Assay Name: Inhibition of recombinant human MAO-A expressed in baculovirus infected BTI insect cells using kynuramine as substrate after 30 mins by fluorescence assay
IC50 strictly less than 7 µM = true (1). Otherwise false (0).

O=C1CCc2ccc(OCCCCCCN3CCCC3)cc2N1: true (1)
CC(C)N1CCN(CCCCOc2ccc3c(c2)NC(=O)CC3)CC1: false (0)
O=C1CCc2ccc(OCCCN3CCCCC3)cc2N1: false (0)
C#CCN(CCCOc1ccc2c(c1)NC(=O)CC2)Cc1ccccc1: false (0)
O=C1CCc2ccc(OCCCN3CCC(N4CCCC4)CC3)cc2N1: false (0)

Just wondering, is IC50 of O=C1CCc2ccc(OCCCCN3CCCCC3)cc2N1 below 7 µM?
false (0)

What about this molecule? O=C1CCc2ccc(OCCCCCN3CCN(Cc4ccccc4)CC3)cc2N1
true (1)

C#CCN(CCCCCCOc1ccc2c(c1)NC(=O)CC2)Cc1ccccc1 ?
true (1)

Please give the result for O=C1CCc2ccc(OCCCCCN3CCCCC3)cc2N1 too.
false (0)

Same question for O=C1CCc2ccc(OCCCCCCN3CCN(Cc4ccccc4)CC3)cc2N1 please.
true (1)

----------
# Assay Name: Selectivity index, ratio of IC50 for equine serum BuChE to IC50 for electric eel AChE
Endpoint Name: Ratio IC50

C#CCN(CCCOc1ccc2c(c1)NC(=O)CC2)Cc1ccccc1: 1.3
CCN(CC)CCCCCOc1ccc2c(c1)NC(=O)CC2: 2.7
CCN(CC)CCCCCCOc1ccc2c(c1)NC(=O)CC2: 2.2

For each of the compounds below, note its Ratio IC50.
1. O=C1CCc2ccc(OCCCCCN3CCc4ccccc4C3)cc2N1
2. O=C1CCc2ccc(OCCCCCCN3CCN(c4ccccn4)CC3)cc2N1
3. O=C1CCc2ccc(OCCCN3CCCCC3)cc2N1
4. O=C1CCc2ccc(OCCCCN3CCN(c4ccccn4)CC3)cc2N1
5. O=C1CCc2ccc(OCCCCN3CCCCC3)cc2N1

[0.1, 0.2, 3.2, 0.6, 1.3]
